- method_description: self-splicing fitness, log relative to wild type (ln ratio); higher = more splicing; Tetrahymena group I intron in knt gene, E. coli kanamycin selection, DiMSum; sequences stand for … in CUCUCU…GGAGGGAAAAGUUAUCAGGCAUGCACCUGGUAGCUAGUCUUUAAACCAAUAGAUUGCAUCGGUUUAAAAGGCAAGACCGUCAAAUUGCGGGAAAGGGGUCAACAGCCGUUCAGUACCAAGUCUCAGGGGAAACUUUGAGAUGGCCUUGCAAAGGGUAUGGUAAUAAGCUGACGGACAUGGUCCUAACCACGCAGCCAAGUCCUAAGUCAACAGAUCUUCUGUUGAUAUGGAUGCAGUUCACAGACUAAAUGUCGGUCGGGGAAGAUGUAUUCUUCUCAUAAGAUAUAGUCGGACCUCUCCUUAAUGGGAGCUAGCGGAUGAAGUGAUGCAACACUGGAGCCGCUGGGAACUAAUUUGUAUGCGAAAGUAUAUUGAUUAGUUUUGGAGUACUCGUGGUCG;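 further: selection with 25 µg/mL kanamycin versus none on LB agar overnight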
- assay_conditions: 30 °C
Threshold check on self-splicing fitness (ln): at or above -3 gives Fulfilled, strictly below gives Not fulfilled.

I'd appreciate it if you could say whether `ACAGAGCAAUAUUACGCAGG` has self-splicing fitness (ln) at least equal to -3. Not fulfilled

---
Is reported self-splicing fitness (ln) greater than or equal to -3 here: `UAUAAGCAAUAUUACGAGCA` Fulfilled

Answer whether self-splicing fitness (ln) of `CGGCAGCAAUAUUACGCUUU` is greater than or equal to -3. Fulfilled

I'd appreciate it if you could say whether `GAUGAGCAAUAUUACGGUUC` has self-splicing fitness (ln) at least equal to -3. Not fulfilled

====

Field: self-splicing fitness (ln). Provide a value for each of the sequences that follow.
- method_description: self-splicing fitness, log relative to wild type (ln ratio); higher = more splicing; Tetrahymena group I intron in knt gene, E. coli kanamycin selection, DiMSum; sequences stand for … in CUCUCU…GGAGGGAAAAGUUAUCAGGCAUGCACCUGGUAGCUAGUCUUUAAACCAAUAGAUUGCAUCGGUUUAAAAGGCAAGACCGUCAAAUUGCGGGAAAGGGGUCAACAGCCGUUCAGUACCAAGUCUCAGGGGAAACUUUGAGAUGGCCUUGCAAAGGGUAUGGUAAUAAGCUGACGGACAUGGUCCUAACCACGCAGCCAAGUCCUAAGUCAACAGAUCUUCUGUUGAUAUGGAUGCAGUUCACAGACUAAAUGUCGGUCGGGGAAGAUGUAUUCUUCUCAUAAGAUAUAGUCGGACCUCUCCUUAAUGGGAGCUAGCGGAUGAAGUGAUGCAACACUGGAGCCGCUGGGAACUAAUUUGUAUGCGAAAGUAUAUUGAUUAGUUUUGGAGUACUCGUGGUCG
- assay_conditions: 30 °C

Observe how each entry below is paired with its result.
// self-splicing fitness (ln) lookup, key: `ACUAAGCAAUAUUACGUCAU` -3.64

// lookup self-splicing fitness (ln) for `CCUUAGCAAUAUUACGCACU` -2.46

Suppose we examine the sequence `CUACAGCAAUAUUACGGUCA` ; what self-splicing fitness (ln) value has been reported? -3.37

What does the data say about its self-splicing fitness (ln)? Entry: `AUGUAGCAAUAUUACGUUUU` -2.64

Each sequence below has a reported value. Please supply its self-splicing fitness (ln).
1. CCAUAGCAAUAUUACGGUGA
2. AAGCAGCAAUAUUACGCUAG
3. CUCCAGCAAUAUUACGUUGG
4. GUUUAGCAAUAUUACGAGAC
5. UGGCAGCAAUAUUACGAUCA
6. UCAGAGCAAUAUUACGCACA
7. UCCAAGCAAUAUUACGCCUG

1: -1.18; 2: -2.56; 3: -3.68; 4: -3.35; 5: -0.413; 6: -1.74; 7: -4.15

Provide the reported self-splicing fitness (ln) of each entry below, same order.
1. GGUGAGCAAUAUUACGCAUG
2. GUGUAGCAAUAUUACGUGGC
3. GAAAAGCAAUAUUACGGUUG

[-1.48, -1.72, -2.39]

Dear colleague, could you send me self-splicing fitness (ln) for each of the items below? Thanks.
1. CAACAGCAAUAUUACGUAAA
2. GCGUAGCAAUAUUACGGCUU
3. GGAUAGCAAUAUUACGUAUG

-2.42
-1.21
-1.66

====

Answer each item with its documented self-splicing fitness (ln).
- method_description: self-splicing fitness, log relative to wild type (ln ratio); higher = more splicing; Tetrahymena group I intron in knt gene, E. coli kanamycin selection, DiMSum; sequences stand for … in CUCUCU…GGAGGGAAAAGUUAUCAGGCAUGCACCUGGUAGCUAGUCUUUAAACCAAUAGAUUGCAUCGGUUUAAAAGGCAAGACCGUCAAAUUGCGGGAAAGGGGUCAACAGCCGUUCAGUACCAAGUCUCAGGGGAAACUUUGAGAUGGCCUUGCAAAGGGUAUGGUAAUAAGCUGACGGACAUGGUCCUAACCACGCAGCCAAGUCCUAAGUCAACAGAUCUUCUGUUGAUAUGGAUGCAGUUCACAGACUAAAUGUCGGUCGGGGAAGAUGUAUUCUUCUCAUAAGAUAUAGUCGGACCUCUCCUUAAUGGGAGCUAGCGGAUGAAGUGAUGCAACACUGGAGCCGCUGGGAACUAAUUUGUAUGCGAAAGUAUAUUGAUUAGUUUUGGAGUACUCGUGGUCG
- assay_conditions: 30 °C
One number for each entry.

Consider the worked cases shown below.
self-splicing fitness (ln) for `AUUCAGCAAUAUUACGCACG` ? -0.783

Fill in the blank: the reported self-splicing fitness (ln) of `CGUUAGCAAUAUUACGCUGA` is ____. -2.78

Look up self-splicing fitness (ln) for this sequence: `UUCGAGCAAUAUUACGAUCG` -2.94

GET /values?readout=self-splicing fitness (ln)&item= `AACCAGCAAUAUUACGAUGC` -1.49

Given `GUCGAGCAAUAUUACGGGAG` , state its recorded self-splicing fitness (ln). -3.67

Record request: self-splicing fitness (ln) value, item `GCUUAGCAAUAUUACGCACG` -2.19

Go through the list and state self-splicing fitness (ln) for each entry.
1. CGCAAGCAAUAUUACGCUGU
2. AAGUAGCAAUAUUACGACAA
3. AAAAAGCAAUAUUACGAGGG
4. UGAAAGCAAUAUUACGUAAA

1: -3.81; 2: -0.505; 3: -3.5; 4: -1.75

GET /values?readout=self-splicing fitness (ln)&item= `GAUCAGCAAUAUUACGUUUC` -2.26

====

- method_description: self-splicing fitness, log relative to wild type (ln ratio); higher = more splicing; Tetrahymena group I intron in knt gene, E. coli kanamycin selection, DiMSum; sequences stand for … in CUCUCU…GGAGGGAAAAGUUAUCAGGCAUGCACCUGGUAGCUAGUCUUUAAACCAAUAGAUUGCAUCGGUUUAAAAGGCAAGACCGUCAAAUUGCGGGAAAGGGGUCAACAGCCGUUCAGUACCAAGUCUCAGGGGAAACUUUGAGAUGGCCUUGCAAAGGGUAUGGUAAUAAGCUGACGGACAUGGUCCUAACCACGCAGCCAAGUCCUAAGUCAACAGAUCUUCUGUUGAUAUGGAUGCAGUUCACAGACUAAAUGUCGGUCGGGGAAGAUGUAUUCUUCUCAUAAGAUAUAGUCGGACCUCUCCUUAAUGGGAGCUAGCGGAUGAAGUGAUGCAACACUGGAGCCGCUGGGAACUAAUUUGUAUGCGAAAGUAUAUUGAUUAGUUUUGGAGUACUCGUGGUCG
- assay_conditions: 37 °C
experimental_endpoint: self-splicing fitness (ln)
Give bare numbers.

Would you mind telling me what self-splicing fitness (ln) value was observed for `CCGUAGCAAUAUUACGUAUC` ? -2.65

For each listed entry, give its self-splicing fitness (ln).
1. AUAUAGCAAUAUUACGCAGC
2. CCCUAGCAAUAUUACGCUUA
3. GGACAGCAAUAUUACGGACG

[-1.92, -2.86, -0.327]

====

- method_description: self-splicing fitness, log relative to wild type (ln ratio); higher = more splicing; Tetrahymena group I intron in knt gene, E. coli kanamycin selection, DiMSum; sequences stand for … in CUCUCU…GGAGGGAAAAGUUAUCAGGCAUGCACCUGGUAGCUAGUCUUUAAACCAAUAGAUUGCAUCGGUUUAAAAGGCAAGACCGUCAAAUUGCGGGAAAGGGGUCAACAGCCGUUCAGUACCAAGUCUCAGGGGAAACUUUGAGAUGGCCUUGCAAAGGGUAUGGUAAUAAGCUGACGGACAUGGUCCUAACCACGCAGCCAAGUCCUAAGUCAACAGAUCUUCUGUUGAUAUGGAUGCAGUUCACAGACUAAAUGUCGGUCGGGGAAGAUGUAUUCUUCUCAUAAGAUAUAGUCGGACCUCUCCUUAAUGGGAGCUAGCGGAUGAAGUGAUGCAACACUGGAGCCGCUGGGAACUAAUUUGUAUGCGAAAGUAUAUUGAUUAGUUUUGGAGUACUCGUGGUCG
- assay_conditions: 37 °C
experimental_endpoint: self-splicing fitness (ln)
Give bare numbers.

Observe how each entry below is paired with its result.
What does the data say about its self-splicing fitness (ln)? Entry: `GCCUAGCAAUAUUACGUUUG` -0.761

Give its self-splicing fitness (ln) value. Item: `UAUGAGCAAUAUUACGUGCG` -1.41

Recorded self-splicing fitness (ln) of `CGUUAGCAAUAUUACGUAAC` , please. -2.3

Now turn to the next sequence.
Fill blank: measured self-splicing fitness (ln) of the sequence `GCGGAGCAAUAUUACGUUGC` is ____. -2.78
